assay: Nuclear factor erythroid 2-related factor 2/antioxidant responsive element (Nrf2/ARE) small molecule agonists: qHTS cell viability counter screen in human keratinocytes (AID 1919968); settings: KeratinoSens HaCaT ARE cells viability, CellTiter-Fluor, 24 h; series mostly up to 92.4 µM; note: nearly all actives have a fitted effect of over 55% in size
Results filed as inconclusive are left out. Calls of active or inactive are those of the source. Calls come from the whole dose curve; as a rule, active = well fitted cell-killing curve with a large enough effect in the repeat runs; inconclusive = weak or mixed curves, or effect the other way; inactive = flat fitted curve, though single readings scatter.
Classes to choose from: 1.0 for active, 0.0 for inactive

# count of solved cases: 5
{"columns": ["COMPOUND", "ANSWER_LABEL"],
 "data": [
  ["Nc1c(Cl)cc(Cl)cc1[N+](=O)[O-]", 0.0],
  ["Oc1ccc(C2(c3ccc(O)cc3)CC3CC2C2CCCC32)cc1 (stereo unspecified)", 1.0],
  ["CCCCC(CC)CNCC(CC)CCCC (stereo unspecified)", 0.0],
  ["C[C@@H]1C[C@H]2[C@@H]3C[C@H](F)C4=CC(=O)C=C[C@]4(C)[C@@]3(F)[C@@H](O)C[C@]2(C)[C@@]1(O)C(=O)CO", 0.0],
  ["CCCCCCCCn1sc(Cl)c(Cl)c1=O", 1.0]
]}

What did the test return for CCCCCCCCC(=O)OCC(C)OC(=O)CCCCCCCC (stereo unspecified) ?
0.0

---

target: 5-hydroxytryptamine receptor 2A (Homo sapiens); assay: 5-hydroxytryptamine receptor 2A (HTR2A) small molecule antagonists, cell-based qHTS assay (AID 1963586); details: HTR2A-CHO cells, DOI-induced calcium flux, fluorescence; series mostly up to 61.5 µM; note: % is set by controls: 0 for no effect and ±100 for the full control effect; nearly all actives have a fitted effect of over 45% in size
Records with an inconclusive call do not appear. The source made the active and inactive calls. Calls come from the whole dose curve.
Classes to choose from: YES = active, NO = inactive

{"columns": ["COMPOUND", "ANSWER_LABEL"],
 "data": [
  ["FC1(F)C(F)(F)C(F)(F)C2(F)C(F)(F)C(F)(F)C(F)(F)C(F)(F)C2(F)C1(F)F (stereo unspecified)", "NO"],
  ["CCCC(=O)OC[C@@H](OC(=O)CCC)[C@@H](OC(=O)CCC)[C@H](Cn1c2nc(=O)[nH]c(=O)c-2nc2cc(C)c(C)cc21)OC(=O)CCC", "NO"],
  ["CC(=O)CCc1ccc(OC(C)=O)cc1", "NO"],
  ["O=C(Cl)c1cccc([N+](=O)[O-])c1", "NO"],
  ["CCCCOCC(C)OCC(C)O (stereo unspecified)", "NO"],
  ["CCCCCCCCCCCCCC(=O)OC", "NO"]
]}

What did the test return for CC(=O)/C(C)=C/C1C(C)=CCCC1(C)C (stereo unspecified) ?
NO

What did the test return for C=CCCCCCCCCOC(C)=O ?
NO

What did the test return for CCCCCCCCCCCCN(CCCCCCCCCCCC)CCCCCCCCCCCC ?
NO

What did the test return for CCOC(=O)CC(=O)C(=O)OCC ?
NO

---

biological target: D(2) dopamine receptor (Homo sapiens) (UniProt P14416); assay: Dopamine D2 receptor (DRD2) small molecule antagonists, cell-based qHTS assay (AID 1963595); conditions: HEK293-DRD2 cAMP HTRF antagonist mode; series mostly up to 92.4 µM
Sequence (P14416 whole entry, looked up): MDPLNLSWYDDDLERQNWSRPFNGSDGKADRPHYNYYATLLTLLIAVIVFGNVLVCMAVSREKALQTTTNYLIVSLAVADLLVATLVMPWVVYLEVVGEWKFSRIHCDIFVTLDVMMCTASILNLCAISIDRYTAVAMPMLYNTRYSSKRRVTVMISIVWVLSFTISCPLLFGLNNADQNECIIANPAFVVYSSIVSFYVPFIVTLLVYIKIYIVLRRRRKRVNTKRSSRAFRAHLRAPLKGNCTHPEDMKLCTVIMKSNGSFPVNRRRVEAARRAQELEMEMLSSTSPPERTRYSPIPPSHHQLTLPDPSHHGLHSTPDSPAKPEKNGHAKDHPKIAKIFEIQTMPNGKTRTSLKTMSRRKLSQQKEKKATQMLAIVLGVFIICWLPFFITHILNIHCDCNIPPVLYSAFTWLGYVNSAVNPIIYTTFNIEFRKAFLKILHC
Inconclusive results are not listed. Active and inactive are the calls of the source. The call rests on the fitted dose curve; in most records, active means well fitted inhibition curve with a large enough effect in the signal ratio in the repeat runs, with a control signal flat; inconclusive means weak or mixed curves, or effect the other way; inactive means flat fitted curve, though single readings scatter; the % refers to the signal ratio.
Classes to choose from: active, inactive

# count of solved cases: 2
{"columns": ["COMPOUND", "STUDY_TARGET", "ANSWER_LABEL"],
 "data": [
  ["Cc1cc(C)c(N)cc1C", "D(2) dopamine receptor (Homo sapiens) (UniProt P14416)", "inactive"],
  ["COc1cccc(N)c1", "D(2) dopamine receptor (Homo sapiens) (UniProt P14416)", "inactive"]
]}

What did the test return for O=C(c1ccccc1)c1ccc(O)cc1O ?
inactive

What did the test return for NNC(=O)CP(=O)(c1ccccc1)c1ccccc1 ?
inactive

What did the test return for CCCCN(CCN(CCCC)C(=O)N1CCOCC1)C(=O)N1CCOCC1 ?
inactive

What did the test return for C/C(C=O)=C\c1ccccc1 ?
inactive

What did the test return for CC(=O)Nc1ccc(O)cc1 ?
inactive

What did the test return for CSc1ccc2c(c1)C(N1CCN(C)CC1)Cc1ccccc1S2 (stereo not drawn) ?
active

What did the test return for Cc1ccccc1C(=O)Nc1ccc(C(=O)N2CCCC(O)c3cc(Cl)ccc32)c(C)c1 (stereo not drawn) ?
inactive

What did the test return for CC(COc1ccccc1)NN (stereo not drawn) ?
inactive

---

assay: Nuclear factor erythroid 2-related factor 2/antioxidant responsive element (Nrf2/ARE) small molecule agonists: luciferase reporter gene qHTS assay in human keratinocytes (AID 1919969); details: KeratinoSens HaCaT ARE-luciferase, luminescence, 24 h; series mostly up to 92.4 µM; note: nearly all actives have a fitted effect of over 35% in size
Inconclusive results are not listed. Calls of active or inactive are those of the source. Calls follow the shape of the full dose curve.
Classes to choose from: active, inactive

# count of solved cases: 2
{"columns": ["COMPOUND", "ANSWER_LABEL"],
 "data": [
  ["C#Cc1cccc(Nc2ncnc3cc(OCCOC)c(OCCOC)cc23)c1", "inactive"],
  ["O=c1c2ccccc2oc2ccccc12", "inactive"]
]}

What did the test return for CCOc1cccc(-n2cc(C(=O)N3CCN(c4cc(C(=O)O)c5ccccc5c4)CC3)nc2-c2ccc(C)cc2)c1 ?
inactive

What did the test return for COC(=O)C1=C(C)NC(C)=C(C(=O)OCC(C)=O)C1c1ccccc1[N+](=O)[O-] (configuration not stated) ?
inactive

What did the test return for CCN(CC)CC1CCCCN1CC(=O)N1c2ccccc2C(=O)Nc2cccnc21 (configuration not stated) ?
inactive

What did the test return for Cc1ccc(-c2cc(C(F)(F)F)nn2-c2ccc(S(N)(=O)=O)cc2)cc1 ?
inactive

What did the test return for CNC1CCCN(c2c(F)cc3c(=O)c(C(=O)O)cn(C4CC4)c3c2OC)C1 (configuration not stated) ?
inactive

What did the test return for CC(=O)OCC(=O)NCCCOc1cccc(CN2CCCCC2)c1 ?
inactive

What did the test return for CCCCCCCCCCCCOC(C)=O ?
inactive

What did the test return for c1ccc(Sc2ccccc2)cc1 ?
active

What did the test return for CCCc1ccc(OC)cc1 ?
inactive

What did the test return for O=C(CC(=O)c1ccccc1)c1ccccc1 ?
active

What did the test return for CCO[Si](CCCS)(OCC)OCC ?
inactive

What did the test return for C[C@@H](NCCCc1cccc(C(F)(F)F)c1)c1cccc2ccccc12 ?
inactive

What did the test return for CC(C(O)c1ccccc1)N(C)CCOC(c1ccccc1)c1ccccc1 (configuration not stated) ?
inactive

What did the test return for CC(C)C(C)C ?
inactive

What did the test return for Cc1[nH]nc2c1N=C(c1ccccc1Cl)c1cc([N+](=O)[O-])ccc1N2 ?
active

What did the test return for OCCc1ccncc1 ?
inactive

What did the test return for CCOC(=O)c1ccccc1OC ?
inactive

What did the test return for CC(CN=Cc1ccccc1O)N=Cc1ccccc1O (configuration not stated) ?
inactive

What did the test return for Cc1cccc(C)c1NC(=O)CN1CCN(CCCC(c2ccc(F)cc2)c2ccc(F)cc2)CC1 ?
inactive

What did the test return for Oc1ccc(CCNCCCCCCNCCc2ccccc2)cc1O ?
inactive

---

biological target: Beta-2 adrenergic receptor (Homo sapiens) (UniProt P07550); test: Adrenergic beta2 receptor (ADRB2) small molecule antagonists, cell-based qHTS assay (AID 1963592); conditions: CHO-ADRB2 cells, isoproterenol-stimulated cAMP HTRF ratio, 0.5 h; series mostly up to 92.4 µM; note: % is set by controls: 0 for no effect and ±100 for the full control effect; nearly all actives have a fitted effect of over 50% in size
Sequence (P07550 whole entry, looked up): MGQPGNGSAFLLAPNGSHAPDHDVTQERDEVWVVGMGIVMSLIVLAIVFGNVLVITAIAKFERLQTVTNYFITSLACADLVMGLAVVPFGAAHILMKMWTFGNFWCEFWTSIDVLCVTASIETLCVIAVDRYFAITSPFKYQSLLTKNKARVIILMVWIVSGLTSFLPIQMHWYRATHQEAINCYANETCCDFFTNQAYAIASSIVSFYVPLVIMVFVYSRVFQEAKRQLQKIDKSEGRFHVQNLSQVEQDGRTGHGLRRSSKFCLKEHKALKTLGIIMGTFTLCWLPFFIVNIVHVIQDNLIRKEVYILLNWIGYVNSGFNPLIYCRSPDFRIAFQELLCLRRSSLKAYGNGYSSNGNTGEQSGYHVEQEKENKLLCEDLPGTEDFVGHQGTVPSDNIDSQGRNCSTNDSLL
Results filed as inconclusive are left out. Calls of active or inactive are those of the source. Calls come from the whole dose curve.
Classes to choose from: Yes = active, No = inactive

{"columns": ["COMPOUND", "ANSWER_LABEL"],
 "data": [
  ["CCC[Si](OC)(OC)OC", "No"]
]}

What did the test return for NC(CCC(=O)O)C(=O)O (stereo not drawn) ?
No

What did the test return for CCOC(=O)C1=C[C@]2(CC)CCCN3CCc4c(n1c1ccccc41)[C@@H]32 ?
No

What did the test return for CC(=O)OCC(=O)NCCCOc1cccc(CN2CCCCC2)c1 ?
No

What did the test return for C[C@@H](C1=C(CCN(C)C)Cc2ccccc21)c1ccccn1 ?
No

What did the test return for COc1nc(C)nc(N)n1 ?
No

What did the test return for COC(=O)CCS ?
No

What did the test return for C/C=C1/C(=O)C[C@H]2[C@@H]3CCC4=CC(=O)CC[C@]4(C)[C@H]3CC[C@]12C ?
No

What did the test return for CCCCC(CC)COP(=O)(O)O (stereo not drawn) ?
No

What did the test return for CCCCc1ccc2nc(NC(=O)OC)[nH]c2c1 ?
No

What did the test return for CCOc1ccc(C(=O)OCCN(CC)CC)cc1 ?
No

What did the test return for CC(=O)OC(C)OC(C)=O ?
No

What did the test return for Nc1nc2ccc(OC(F)(F)F)cc2s1 ?
No

What did the test return for COc1ccc2cc(CCC(C)=O)ccc2c1 ?
No

---

assay: p53 small molecule agonists, cell-based qHTS assay with rat liver microsomes: qHTS cell viability counter screen (AID 1963580); conditions: p53RE-bla HCT-116 + rat microsomes, ATP viability, 16 h; series mostly up to 66 µM; note: nearly all actives have a fitted effect of over 45% in size
Inconclusive results are not listed. The source made the active and inactive calls. Calls follow the shape of the full dose curve.
Classes to choose from: T (active), F (inactive)

# count of solved cases: 8
{"columns": ["SMILES_NOTATION", "ANSWER_LABEL"],
 "data": [
  ["O=C(O)C(c1ccc(Cl)cc1)c1ccc(Cl)cc1", "F"],
  ["CC1=C(O)C(=O)CO1", "F"],
  ["CCCc1ncc(C[n+]2ccccc2C)c(N)n1", "F"],
  ["C=C(C)c1cccc(C(=C)C)c1", "F"],
  ["C=C[C@](C)(O)CC[C@@H]1[C@@]2(C)CCCC(C)(C)[C@@H]2CC[C@@]1(C)O", "T"],
  ["OC[C@H]1O[C@@H]2O[C@H]3[C@H](O)[C@@H](O)[C@@H](O[C@H]4[C@H](O)[C@@H](O)[C@@H](O[C@H]5[C@H](O)[C@@H](O)[C@@H](O[C@H]6[C@H](O)[C@@H](O)[C@@H](O[C@H]7[C@H](O)[C@@H](O)[C@@H](O[C@H]8[C@H](O)[C@@H](O)[C@@H](O[C@H]9[C@H](O)[C@@H](O)[C@@H](O[C@H]1[C@H](O)[C@H]2O)O[C@@H]9CO)O[C@@H]8CO)O[C@@H]7CO)O[C@@H]6CO)O[C@@H]5CO)O[C@@H]4CO)O[C@@H]3CO", "F"],
  ["CC(C)CCOC(=O)c1ccc(N(C)C)cc1", "F"],
  ["CCCCCCCCCCCCOC(C)=O", "F"]
]}

What did the test return for CCN(CC)CCOc1ccc2c(c1)C(=O)c1cc(OCCN(CC)CC)ccc1-2 ?
F

What did the test return for CCCCNc1ccc(C(=O)OCCOCCOCCOCCOCCOCCOCCOCCOCCOC)cc1 ?
F
